pIC50: −log10 of the molar value.
Observed pIC50 for PI3K δ (Homo sapiens, UniProt O00329), reported per entry below.

C=Cc1nn(Cc2cc3cccc(C)c3c(=O)n2-c2ccccc2C)c2ncnc(N)c12 = > 7.00
Cc1ccccc1-n1c(Cn2nc(-c3ccc4oc(N)nc4c3)c3c(N)ncnc32)cc2cccc(C)c2c1=O = > 7.00
Cc1cccc2cc(Cn3nc(-c4cn[nH]c4)c4c(N)ncnc43)n(-c3ccccc3Cl)c(=O)c12 = > 7.00
Cc1ccccc1-n1c(Cn2nc(-c3nn[nH]n3)c3c(N)ncnc32)cc2cccc(C)c2c1=O = > 7.00
Cc1cccnc1-n1c(Cn2nc(-c3cccc(O)c3)c3c(N)ncnc32)cc2cccc(C)c2c1=O = > 7.00

*Q* // pIC50 lookup, key: Cc1cccc2cc([C@H](C)NC(=O)c3cnn4ccccc34)n(-c3ccccc3)c(=O)c12
*A* < 5.00

*Q* pIC50 for CCC(Nc1ncnc2[nH]cnc12)c1cc2cccc(C)c2c(=O)n1C1CCN(C)CC1 (stereo not shown) ?
*A* > 6.00

*Q* Given the molecule Cc1ccccc1-n1c(Cn2nc(C(N)=O)c3c(N)ncnc32)cc2cccc(C)c2c1=O , what is its reported pIC50?
*A* > 6.00

*Q* pIC50 for Cc1cccc2cc(Cn3nc(C#C[C@@H](C)O)c4c(N)ncnc43)n(C3CCCC3)c(=O)c12 ?
*A* > 7.00

*Q* Fill in the blank: the reported pIC50 of Cc1cccc2cc(C(C)Nc3ncnc4[nH]cnc34)n(-c3ccccc3)c(=O)c12 (stereo not shown) is ____.
*A* > 7.00

*Q* Sample Cc1cccnc1-n1c(Cn2nc(-c3ccc(Cl)c(O)c3)c3c(N)ncnc32)cc2cccc(C)c2c1=O — what was its pIC50?
*A* > 7.00

*Q* # input molecule: Cc1cccc2cc(Cn3nc(-c4cccc(O)c4)c4c(N)ncnc43)n(-c3ccccc3)c(=O)c12 ; wanted: its pIC50
*A* > 7.00
